Items are presented alongside their recorded Urine (% ID at 1 h p.i.).
# Test system: NCI-H460 tumor
# ASSAY_SUMMARY: In vivo biodistribution in NCI-H460 tumor bearing mice
# PROTOCOL_CONDITIONS: 1 h p.i.
Respond numerically; units are % ID and should not be typed.

Problem: Please give the measured Urine (% ID at 1 h p.i.) for this compound: N[C@@H](CC(Cc1ccc(OCCC[18F])cc1)C(=O)O)C(=O)O (some centres unmarked) [[^18F]-4]
Result: 79.8

Problem: Reported Urine (% ID at 1 h p.i.), compound N[C@@H](CCC(Cc1ccc(OCC[18F])cc1)C(=O)O)C(=O)O (some centres unmarked) [[^18F]-12] : ____
Result: 82.1

Problem: Need Urine (% ID at 1 h p.i.) of N[C@@H](C[C@H](Cc1ccc(OC[18F])cc1)C(=O)O)C(=O)O [[^18F]-48] , thanks.
Result: 79

Problem: Tell me the measured Urine (% ID at 1 h p.i.) of N[C@@H](CCC(Cc1ccc(OCC[18F])cn1)C(=O)O)C(=O)O (some centres unmarked) [[^18F]-32] , please.
Result: 81.0

Problem: Bench note: what Urine (% ID at 1 h p.i.) did N[C@@H](CC(Cc1ccc(OCC[18F])c(O)c1)C(=O)O)C(=O)O (some centres unmarked) [[^18F]-44] show?
Result: 80.6

---

Parameter Kidney (% ID/g at 1 h p.i.): see the listing below.
# System: NCI-H460 tumor
# ASSAY_SUMMARY: In vivo biodistribution in NCI-H460 tumor bearing mice
# PROTOCOL_CONDITIONS: 1 h p.i.
The reply should consist of the numeric value with the unit placed after it.

MOLECULE: N[C@@H](CCC(Cc1ccc(NCC[18F])cc1)C(=O)O)C(=O)O (some centres unmarked) [[^18F]-52]
RECORDED_ENDPOINT: Kidney (% ID/g at 1 h p.i.)
READING: 3.5 ± 1.1 % ID/g
//
MOLECULE: N[C@@H](CC(Cc1ccc(OCC[18F])nc1)C(=O)O)C(=O)O (some centres unmarked) [[^18F]-56]
RECORDED_ENDPOINT: Kidney (% ID/g at 1 h p.i.)
READING: 5.2 ± 1.1 % ID/g
//
MOLECULE: N[C@@H](C[C@H](CCCc1ccc(OCC[18F])cc1)C(=O)O)C(=O)O [[^18F]-25]
RECORDED_ENDPOINT: Kidney (% ID/g at 1 h p.i.)
READING: 0.2 ± 0.05 % ID/g
//
MOLECULE: N[C@@H](CCC(Cc1ccc(OC[18F])cc1)C(=O)O)C(=O)O (some centres unmarked) [[^18F]-41]
RECORDED_ENDPOINT: Kidney (% ID/g at 1 h p.i.)
READING: 3.1 ± 0.4 % ID/g
//
MOLECULE: N[C@@H](C[C@H](Cc1ccc(OC[18F])cc1)C(=O)O)C(=O)O [[^18F]-48]
RECORDED_ENDPOINT: Kidney (% ID/g at 1 h p.i.)
READING: 1.8 ± 0.4 % ID/g
//
MOLECULE: N[C@@H](CCC(Cc1ccc(OCC[18F])cn1)C(=O)O)C(=O)O (some centres unmarked) [[^18F]-32]
RECORDED_ENDPOINT: Kidney (% ID/g at 1 h p.i.)
READING: 3.9 ± 1.0 % ID/g
//
MOLECULE: N[C@@H](CC(Cc1ccc(NCCC[18F])cc1)C(=O)O)C(=O)O (some centres unmarked) [[^18F]-8]
RECORDED_ENDPOINT: Kidney (% ID/g at 1 h p.i.)
READING: 2.8 ± 0.6 % ID/g

In the following, a different molecule is considered.
Problem: GET /values?readout=Kidney (% ID/g at 1 h p.i.)&item= N[C@H](CCC(Cc1ccc(OCC[18F])cc1)C(=O)O)C(=O)O (some centres unmarked) [[^18F]-16]
Result: 3.4 ± 0.3 % ID/g

---

# Test system: NCI-H460 tumor
# ASSAY_SUMMARY: PET imaging in NCI-H460 tumor bearing nude-rats
# Type: in vivo
# PROTOCOL_CONDITIONS: PET ROI analysis, 1 h p.i.
Each record gets a class by Kidney (% ID/g at 1 h p.i.): Low (below 0.5 % ID/g), Mid (0.5 % ID/g to below 2 % ID/g), High (2 % ID/g or more)

Study these solved cases before continuing.
COMPOUND: N[C@@H](CC(Cc1ccc(OCC[18F])c[n+]1[O-])C(=O)O)C(=O)O (stereo partly drawn) [[^18F]-35]
ANSWER_LABEL: High
//
COMPOUND: N[C@@H](CCC(Cc1ccc(OCC[18F])cc1)C(=O)O)C(=O)O (stereo partly drawn) [[^18F]-12 C5-2]
ANSWER_LABEL: Low
//
COMPOUND: N[C@@H](CCC(Cc1ccc(OC[18F])cc1)C(=O)O)C(=O)O (single isomer, unassigned) [[^18F]-41 C5-2]
ANSWER_LABEL: Low
//
COMPOUND: N[C@@H](CC(Cc1ccc(OCC[18F])cn1)C(=O)O)C(=O)O (stereo partly drawn) [[^18F]-17]
ANSWER_LABEL: High
//
COMPOUND: N[C@@H](CCC(Cc1ccc(OCC[18F])cc1)C(=O)O)C(=O)O (stereo partly drawn) [[^18F]-12]
ANSWER_LABEL: Mid

Problem: // return the class label for N[C@@H](CC(Cc1ccc(OCCC[18F])cc1)C(=O)O)C(=O)O (stereo partly drawn) [[^18F]-4]
Result: Mid

Problem: Which Kidney (% ID/g at 1 h p.i.) band matches N[C@H](CCC(Cc1ccc(OCC[18F])cc1)C(=O)O)C(=O)O (stereo partly drawn) [[^18F]-16] ?
Result: Mid

Problem: Would you mind sorting N[C@@H](CC(Cc1ccc(OC[C@H](O)[C@@H](O)C[18F])cc1)C(=O)O)C(=O)O (stereo partly drawn) [[^18F]-58] into the appropriate category?
Result: High

Problem: Consider N[C@@H](CCC(Cc1ccc(OCC[18F])cc1)C(=O)O)C(=O)O (stereo partly drawn) [[^18F]-12 C5-1] . To which Kidney (% ID/g at 1 h p.i.) class does it belong?
Result: Mid

---

# System: NCI-H460 tumor
# ASSAY_SUMMARY: PET imaging in NCI-H460 tumor bearing nude-rats
# Type: in vivo
# PROTOCOL_CONDITIONS: PET ROI analysis, 1 h p.i.
# Description: c) Beside PET-imaging studies in mice, also the imaging properties of [^18F]-12 in rats were examined. NCI-H460 tumor cells were inoculated into the right flank of nude-rats (RH-Foxn1 nu/nu) 8 to 10 days before the PET study. […] The H460 tumor was nicely visible (0.9% ID/g as determined by ROI analysis). […] To test the imaging properties, compounds from the present invention were evaluated in PET imaging studies using tumor bearing rats. […]
Each entry below carries its reported Kidney (% ID/g at 1 h p.i.).
Quote the value and follow it with the unit of measurement.

Problem: Under NCI-H460 tumor: Kidney (% ID/g at 1 h p.i.) value of N[C@@H](CC(Cc1ccc(O[C@H]2C[C@@H]([18F])C2)cc1)C(=O)O)C(=O)O (stereo partly drawn) [[^18F]-22] ?
Result: 0.5 % ID/g

Problem: Form field: Kidney (% ID/g at 1 h p.i.) recorded for N[C@@H](CCC(Cc1ccc(OC[18F])cc1)C(=O)O)C(=O)O (single isomer, unassigned) [[^18F]-41 C5-1] with NCI-H460 tumor (enter value)
Result: 0.5 % ID/g

Problem: Give Kidney (% ID/g at 1 h p.i.) (NCI-H460 tumor) of the following compound: N[C@@H](CCC(Cc1ccc(OC[18F])cc1)C(=O)O)C(=O)O (stereo partly drawn) [[^18F]-41]
Result: 0.5 % ID/g

Just for reference, patent US9238631B2 is where these values come from.
